testedTarget: T1, CRBN, Q96SW2;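 also: pooled lentiviral library of zinc finger degron-EGFP fusions in mCherry-positive Jurkat cells, FACS-sorted after compound exposure, with degron abundance counted by next-generation sequencing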
T1 chain: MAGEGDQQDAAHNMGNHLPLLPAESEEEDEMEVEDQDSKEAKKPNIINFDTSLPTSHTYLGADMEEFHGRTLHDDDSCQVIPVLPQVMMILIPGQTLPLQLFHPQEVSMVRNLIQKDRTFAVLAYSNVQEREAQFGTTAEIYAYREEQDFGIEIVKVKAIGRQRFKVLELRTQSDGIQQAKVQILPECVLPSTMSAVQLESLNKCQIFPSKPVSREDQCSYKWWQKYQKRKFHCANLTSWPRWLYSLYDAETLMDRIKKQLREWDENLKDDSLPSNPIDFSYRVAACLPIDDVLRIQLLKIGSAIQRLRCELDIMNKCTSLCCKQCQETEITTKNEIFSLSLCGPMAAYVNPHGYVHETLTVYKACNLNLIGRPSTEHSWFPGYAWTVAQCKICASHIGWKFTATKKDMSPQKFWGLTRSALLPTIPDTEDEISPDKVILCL
procedureText: log2 fold change of degron read counts, EGFP-low vs EGFP+ sorted cells (limma voom), compound-induced degradation; higher = more compound-induced degradation of the degron-EGFP fusion; degrons are variants of IKZF1/3 zinc finger 2; compound dose not given here
experimentalConditions: Jurkat; 18 h; compound: compound 33 (diphenyl IMiD analogue)
The full ranking holds about 8,300 sequences; the median of “log2 fold change of degron read counts, EGFP-low vs EGFP+ sorted cells (limma voom), compound-induced degradation” is about -1.1, and the highest 2% start at about 3.2. Many of the other results were omitted from the sample, so the highest values are more common in it than they were.
quantity: log2 fold change of degron read counts

- LRCEICGFSCTQKGNLLRHIKL [46L_47R_49E_50I_52G_53F_54S_55C_67L_, Q9UKT9]: 2.62
- LGCEICGFSCTQKGNLLRHIKL [46L_47G_49E_50I_52G_53F_54S_55C_67L_, Q9UKT9]: -0.284
- LICNQCGFPCTQKGNLLRHIKL [46L_47I_49N_50Q_52G_53F_54P_55C_67L_, Q9UKT9]: -2.15
- LSCEICGFSCTQKGNLLRHIKL [46L_47S_49E_50I_52G_53F_54S_55C_67L_, Q9UKT9]: 1.7
- LECEICGFSCTQKGNLLRHIKL [46L_47E_49E_50I_52G_53F_54S_55C_67L_, Q9UKT9]: 1.25

For each of the sequences below, state log2 fold change of degron read counts.
1. FHCEICGRSFTQKGNLLRHIKL [46F_47H_49E_50I_52G_53R_54S_55F_67L_, Q9UKT9]
2. FHCNQCGHYFTQKGNLLRHIKL [46F_47H_49N_50Q_52G_53H_54Y_55F_67L_, Q9UKT9]
3. FNCDICGAEFTQKGNLLRHIKL [46F_47N_49D_50I_52G_53A_54E_55F_67L_, Q9UKT9]
4. LWCEICGFSCTQKGNLLRHIKL [46L_47W_49E_50I_52G_53F_54S_55C_67L_, Q9UKT9]
5. FYCEVCGAHFTQKGNLLRHIKL [46F_47Y_49E_50V_52G_53A_54H_55F_67L_, Q9UKT9]
6. LLCEICGFSCTQKGNLLRHIKL [46L_47L_49E_50I_52G_53F_54S_55C_67L_, Q9UKT9]
7. FECEVCGAAFTQKGNLLRHIKL [46F_47E_49E_50V_52G_53A_54A_55F_67L_, Q9UKT9]

Result:
[-0.909, -2.16, -2.21, 3.08, 2.45, 1.49, 1.75]
